Target: Muscarinic acetylcholine receptor M1 (Rattus norvegicus)
Experiment: qHTS Assay for Antagonists of Acetylcholine Muscarinic M1 Receptor: Measurement of IP-One Response (AID 944); note: nearly all actives have a fitted effect of over 75% in size
Settings: CHO-M1 cells, IP-One HTRF, antagonist mode; series mostly up to 46.1 µM
Records with an inconclusive call do not appear. The source made the active and inactive calls. Calls come from the whole dose curve; as a rule, active = well fitted inhibition curve with a large enough effect; inconclusive = small, poorly fitted or top-dose-only effect; inactive = no such curve, though single readings can be large or run the other way.
Outcomes: T for active, F for inactive

>>> class("CCCC(C)(COC(N)=O)COC(=O)NC(C)C (stereo not drawn)")
"F"
>>> class("CNCC(O)c1ccc(O)cc1 (stereo not drawn)")
"F"
>>> class("Nc1ccncc1")
"F"
>>> class("O=c1[nH]c2ccccc2n1CCCN1CCC(n2c(=O)[nH]c3cc(Cl)ccc32)CC1")
"T"
>>> class("CCCN1CCC[C@@H]2Cc3[nH]ncc3C[C@H]21")
"F"
>>> class("CCCN1CCC[C@@H]2Cc3nc(N)ncc3C[C@H]21")
"F"
>>> class("NN=C(N)N")
"F"
>>> class("N[C@@H]1C[C@H]1c1ccccc1")
"F"
>>> class("Fc1ccc(C(OCCN2CCN(CCCc3ccccc3)CC2)c2ccc(F)cc2)cc1")
"T"
>>> class("CN1C[C@H](CNC(=O)OCc2ccccc2)C[C@@H]2c3cccc4c3c(cn4C)C[C@H]21")
"T"
>>> class("COc1ccccc1N1CCNCC1")
"F"
>>> class("Cc1nc2n(c(=O)c1CCN1CCC(c3noc4cc(F)ccc34)CC1)CCCC2")
"T"
>>> class("Cc1ncc(CNC(=O)N(CCCl)N=O)c(N)n1")
"F"

###

Experiment: Cell Proliferation Assay against the HBL1 Cell Line (AID 651646);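 note: cells exposed to compound for 48 h before reading; 100% = DMSO and 0% = 9.2 µM bortezomib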
Conditions: HBL1 DLBCL cells; at 46.1 µM (top of the series)
observable: viability, percent of control (%)

>>> recorded_measurement("Cc1sc2c(c1C)C(c1ccc(Cl)cc1)=N[C@@H](CC(=O)OC(C)(C)C)c1nnc(C)n1-2")
13.5
>>> recorded_measurement("Cn1cc(C2=C(c3cn(C4CCN(Cc5ccccn5)CC4)c4ccccc34)C(=O)NC2=O)c2ccccc21")
33.2
>>> recorded_measurement("CN(C)CCN(C)CCc1ccc(Cl)c(Cl)c1")
73.4
>>> recorded_measurement("C[C@@H]1[C@@H](CC(C[C@H]2O[C@@H]3O[C@]4(C)CC[C@@H]5[C@H](C)CC[C@@H]([C@H]2C)[C@@]35OO4)C[S+](=O)([O-])c2ccc(COC(=O)N(C)C)cc2)O[C@@H]2O[C@]3(C)CC[C@H]4[C@H](C)CC[C@@H]1[C@@]24OO3 (stereo partly drawn)")
39.8
>>> recorded_measurement("COc1ccc(C(=O)c2c(C)n(CCN3CCOCC3)c3ccccc23)cc1")
50.4
>>> recorded_measurement("Cc1cc(SCc2sc(-c3ccc(C(F)(F)F)c(F)c3)nc2C)ccc1OCC(=O)O")
93.2
>>> recorded_measurement("Cn1c(CCCC(=O)O)nc2cc(N(CCCl)CCCl)ccc21")
108
>>> recorded_measurement("CS(=O)c1ccc(-c2nc(-c3ccc(F)cc3)c(-c3ccncc3)[nH]2)cc1 (stereo not drawn)")
100

###

Assay: qHTS for Inhibitors of the Functional Ribonucleoprotein Complex (vRNP) of Lassa (LASV) Arenavirus: LASV Primary Screen - GLuc reporter signal (AID 1347082); note: nearly all actives have a fitted effect of over 60% in size; note: potency is the fitted concentration of half-maximal effect
Conditions: LASV minigenome vRNP, Gaussia luciferase reporter; series mostly up to 57.5 µM
Results filed as inconclusive are left out. Activity calls are given as the source filed them. Calls come from the whole dose curve; tested in HEK293 reporter line.
observable: Potency

>>> recorded_measurement("Cc1ccc(S(=O)(=O)NC(=O)NN2CCCCCC2)cc1")
"inactive"
>>> recorded_measurement("CC1NCCOC1c1ccccc1 (stereo not given)")
"inactive"
>>> recorded_measurement("CC(=O)[C@]1(O)Cc2c(O)c3c(c(O)c2[C@@H](O[C@H]2C[C@H](N)[C@H](O)[C@H](C)O2)C1)C(=O)c1ccccc1C3=O")
"3.98 µM (active)"
>>> recorded_measurement("N[C@@H](C(=O)N[C@@H]1C(=O)N2C(C(=O)O)=C(Cl)CS[C@H]12)c1ccccc1")
"inactive"
>>> recorded_measurement("Cc1ccc(-c2cc(C(F)(F)F)nn2-c2ccc(S(N)(=O)=O)cc2)cc1")
"inactive"

###

Test: qHTS Assay for Identification of Small Molecule Antagonists for NFkB Signaling Pathway. (AID 624479);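 note: pathway stimulated with TNF alpha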
Settings: NFkB pathway reporter cell assay, antagonist mode; series mostly up to 38.3 µM
Active and inactive are the calls of the source. Calls follow the shape of the full dose curve.
Outcomes: Yes = active, No = inactive

>>> class("COc1ccc(C(=O)c2c(C)n(CCN3CCOCC3)c3ccccc23)cc1")
"No"
>>> class("COC[C@H]1OC(=O)c2coc3c2[C@@]1(C)C1=C(C3=O)C2CCC(=O)[C@@]2(C)C[C@H]1OC(C)=O (some centres undefined)")
"Yes"
>>> class("COC1(CS(=O)c2ccccc2)CCN(CCc2c[nH]c3ccc(F)cc23)CC1 (centres undefined)")
"No"
>>> class("Cn1c(CCCC(=O)O)nc2cc(N(CCCl)CCCl)ccc21")
"No"
>>> class("C[C@@H]1[C@@H](C(=O)C[C@H]2O[C@@H]3O[C@]4(C)CC[C@@H]5[C@H](C)CC[C@@H]([C@H]2C)[C@@]35OO4)O[C@@H]2O[C@]3(C)CC[C@H]4[C@H](C)CC[C@@H]1[C@@]24OO3")
"No"
>>> class("O=C(O)C(=O)c1cn(Cc2ccccc2)c2ccc(-c3ccc(OC(F)(F)F)cc3)cc12")
"Yes"
>>> class("CO[C@@H](C(=O)N1Cc2[nH]nc(NC(=O)c3ccc(N4CCN(C)CC4)cc3)c2C1)c1ccccc1")
"Yes"
>>> class("CNC(=O)N1N=C(c2ccc(N)cc2)c2cc3c(cc2CC1C)OCO3 (centres undefined)")
"No"
>>> class("Cn1cc(C2=C(c3cn(C4CCN(Cc5ccccn5)CC4)c4ccccc34)C(=O)NC2=O)c2ccccc21")
"Yes"

###

Experiment: qHTS of pediatric cancer cell lines to identify multiple opportunities for drug repurposing: Primary screen for NB-EBc1 cells (AID 1347095); note: potency is the fitted concentration of half-maximal effect
Settings: NB-EBc1 neuroblastoma viability, CellTiter-Glo luminescence, 48 h; series mostly up to 46 µM
Inconclusive results are not listed. Active and inactive are the calls of the source. Calls follow the shape of the dose curve; as a rule, active = well fitted cell-killing curve with a large enough effect; inconclusive = small, poorly fitted or top-dose-only effect; inactive = no such curve, though single readings can be large or run the other way.
observable: Potency

>>> recorded_measurement("O=C1NCN(c2ccccc2)C12CCN(CC1COc3ccccc3O1)CC2 (centres undefined)")
"inactive"
>>> recorded_measurement("CCN(CC)C(=O)N[C@@H]1C=C2c3cccc4[nH]cc(c34)C[C@@H]2N(C)C1")
"inactive"
>>> recorded_measurement("Clc1ccc(CCC(Cn2ccnc2)Sc2c(Cl)cccc2Cl)cc1 (centres undefined)")
"21.1 µM (active)"
>>> recorded_measurement("C=C1CC[C@@]2(O)[C@H]3Cc4ccc(O)c5c4[C@@]2(CCN3CC2CC2)[C@H]1O5")
"inactive"
>>> recorded_measurement("Cc1ccc(S(=O)(=O)N[C@@H](CCCCN)C(=O)CCl)cc1")
"inactive"
>>> recorded_measurement("N[C@@H](Cc1ccc(Oc2cc(I)c(O)c(I)c2)c(I)c1)C(=O)O")
"inactive"
>>> recorded_measurement("O=P1(NCCCl)OCCCN1CCCl (centres undefined)")
"inactive"
>>> recorded_measurement("CC1OC(C)OC(C)O1 (centres undefined)")
"inactive"
>>> recorded_measurement("CC(O)(CS(=O)(=O)c1ccc(F)cc1)C(=O)Nc1ccc(C#N)c(C(F)(F)F)c1 (centres undefined)")
"3.32 µM (active)"
>>> recorded_measurement("Nc1ccncc1")
"inactive"
>>> recorded_measurement("O=c1[nH]c2ccccc2n1CCCN1CCC(n2c(=O)[nH]c3cc(Cl)ccc32)CC1")
"inactive"
>>> recorded_measurement("C[C@@H]1[C@@H](C(=O)C[C@H]2O[C@@H]3O[C@]4(C)CC[C@@H]5[C@H](C)CC[C@@H]([C@H]2C)[C@@]35OO4)O[C@@H]2O[C@]3(C)CC[C@H]4[C@H](C)CC[C@@H]1[C@@]24OO3")
"0.469 µM (active)"
>>> recorded_measurement("CCC(C(N)=O)N1CCCC1=O (centres undefined)")
"inactive"
>>> recorded_measurement("CCC(COC(=O)c1cc(OC)c(OC)c(OC)c1)(c1ccccc1)N(C)C (centres undefined)")
"inactive"
>>> recorded_measurement("CCOC(=O)C1(c2ccccc2)CCN(CCC(C#N)(c2ccccc2)c2ccccc2)CC1")
"18.8 µM (active)"
>>> recorded_measurement("COC1(CS(=O)c2ccccc2)CCN(CCc2c[nH]c3ccc(F)cc23)CC1 (centres undefined)")
"inactive"
>>> recorded_measurement("NCC1(CC(=O)O)CCCCC1")
"inactive"
>>> recorded_measurement("C[C@]12CCC(=O)C(O)=C1CC[C@@H]1[C@@H]2CC[C@]2(C)C(=O)CC[C@@H]12")
"inactive"
>>> recorded_measurement("NCCc1cc(O)c(O)cc1O")
"inactive"

###

System: NIH3T3
Test: Cytotoxic Profiling of Annotated Libraries Using Quantitative High-Throughput Screening (AID 1296008); note: % is set by controls: 0 for no effect and ±100 for the full control effect; nearly all actives have a fitted effect of over 60% in size
Settings: Five cell lines viability, CellTiter-Glo ATP luminescence, 48-72 h; stronger effect = lower value
Inconclusive results are not listed.
observable: max response (%)

>>> recorded_measurement("CCOC(=O)C1(c2ccccc2)CCN(CCC(C#N)(c2ccccc2)c2ccccc2)CC1")
-8.7
>>> recorded_measurement("N#CC(C#N)=Cc1ccc(O)c(O)c1")
-19.5
>>> recorded_measurement("COC[C@@H](NC(C)=O)C(=O)NCc1ccccc1")
2.94
>>> recorded_measurement("CNC(=O)N1N=C(c2ccc(N)cc2)c2cc3c(cc2CC1C)OCO3 (centres undefined)")
-39.3
>>> recorded_measurement("Cc1cc(SCc2sc(-c3ccc(C(F)(F)F)c(F)c3)nc2C)ccc1OCC(=O)O")
3.63
>>> recorded_measurement("COc1ccc(C(=O)c2c(C)n(CCN3CCOCC3)c3ccccc23)cc1")
-11.5
>>> recorded_measurement("CCOP(=S)(OCC)Oc1cc(C)nc(C(C)C)n1")
-12
>>> recorded_measurement("COC1(CS(=O)c2ccccc2)CCN(CCc2c[nH]c3ccc(F)cc23)CC1 (centres undefined)")
-8
>>> recorded_measurement("NP(N)(=O)NC(=O)c1ccc(F)cc1")
4.85
